# Tested on: Mycobacterium tuberculosis
# assay: Antibacterial activity against wild type Mycobacterium tuberculosis H37Rv-LP DREAM8 strain expressing codon-optimized DsRed assessed growth inhibition incubated for 5 days by fluorescence spectrophotometric assay
# Type: functional
# conditions_used: H37Rv-LP DREAM8, 120 h, time 5 day
Recorded IC90 by entry

Some compounds with recorded IC90:
COc1ccc(-c2cc(C)c3c(N)c(C(=O)Nc4cccc(C)c4C)sc3n2)cc1 | > 100 µM
COc1ccc(-c2cc(C(F)(F)F)c3c(N)c(C(=O)Nc4cc(C)ccc4C)sc3n2)cc1 | > 100 µM
COc1ccc(-c2cc(C(F)(F)F)c3c(N)c(C(=O)Nc4c(C)cccc4C)sc3n2)cc1 | > 100 µM
COCCNC(=O)c1sc2nc(-c3ccc(OC)cc3)cc(C(F)(F)F)c2c1N | > 100 µM
COc1ccc(-c2cc(C(F)(F)F)c3cc(C(=O)NC(C)c4ccccc4)sc3n2)cc1 (centres undefined) | 2.5 µM

Challenge: Given the entry Nc1c(C(=O)Nc2ccccc2F)sc2nc(-c3ccccc3)cc(C(F)(F)F)c12 , report its measured IC90.
Response given: > 100 µM

Challenge: Request the reported IC90 associated with COc1ccc(-c2cc(C(F)(F)F)c3c(N)c(C(=O)Nc4cccc(C)c4F)sc3n2)cc1
Response given: > 100 µM

Challenge: For the compound Cc1cccc(NC(=O)c2sc3nc(-c4ccco4)cc(C(F)(F)F)c3c2N)c1C , what IC90 is on record?
Response given: > 100 µM

Challenge: Fill blank: measured IC90 of the compound COc1ccc(-c2cc(C(F)(F)F)c3c(N)c(C(=O)N4CCCCC4)sc3n2)cc1 is ____.
Response given: > 100 µM

Challenge: For the compound shown here, COc1ccc(-c2cc(C(F)(F)F)c3c(N)c(C(=O)NCCSC)sc3n2)cc1 , give the reported IC90.
Response given: 41 µM

Challenge: # get_value(readout='IC90', item= Nc1c(C(=O)NCc2ccccc2)sc2ncccc12 )
Response given: > 100 µM

Challenge: // returns reported IC90 for input COc1ccc(-c2cc(C(F)(F)F)c3c(N)c(C(=O)Nc4cccc(C)c4C)sc3n2)cc1
Response given: 1.1 µM

Challenge: Fill in: IC90 of COc1ccc(-c2cc(C(F)(F)F)c3c(N)c(C(=O)Nc4ccc(C)cc4C)sc3n2)cc1 is ___
Response given: > 100 µM

Challenge: Can you share its IC90? I mean this compound: COc1ccc(-c2cc(C(F)(F)F)c3c(N)c(C(=O)NCc4ccccc4C)sc3n2)cc1
Response given: 2.4 µM

Challenge: Query: IC90; subject: Nc1c(C(=O)N2CCOCC2)sc2nc(Cl)ccc12
Response given: > 100 µM

Challenge: I'd like to know its IC90. The compound in question is COc1ccc(-c2cc(C(F)(F)F)c3c(N)c(C(=O)NC(C)c4ccccc4)sc3n2)cn1 (centres undefined)
Response given: 1.2 µM

Challenge: Need IC90 of COc1cccc(-c2cc(C(F)(F)F)c3c(N)c(C(=O)Nc4cccc(C)c4C)sc3n2)c1 , thanks.
Response given: > 100 µM

Challenge: Quick one: IC90 of COc1ccc(-c2cc(C(F)(F)F)c3c(N)c(C(=O)N4C5CCCC4COC5)sc3n2)cc1 ?
Response given: > 100 µM
